B1: PhoQ; a variant is named by its letters at X, in order, P23837 (parent)
chain: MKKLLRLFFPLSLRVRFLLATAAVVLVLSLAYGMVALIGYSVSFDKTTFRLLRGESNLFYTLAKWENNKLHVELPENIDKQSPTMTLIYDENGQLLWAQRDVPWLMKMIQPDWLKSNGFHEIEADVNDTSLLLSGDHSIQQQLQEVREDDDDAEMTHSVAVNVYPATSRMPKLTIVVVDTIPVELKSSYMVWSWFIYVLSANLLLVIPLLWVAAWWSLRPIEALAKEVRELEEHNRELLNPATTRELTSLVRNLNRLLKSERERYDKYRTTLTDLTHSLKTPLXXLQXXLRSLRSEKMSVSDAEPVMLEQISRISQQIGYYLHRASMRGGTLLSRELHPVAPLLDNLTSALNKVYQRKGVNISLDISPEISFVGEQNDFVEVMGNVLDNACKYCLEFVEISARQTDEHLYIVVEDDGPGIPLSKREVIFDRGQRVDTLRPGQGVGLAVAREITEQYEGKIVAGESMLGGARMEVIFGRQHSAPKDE

- Variants of: B1
- protocolSummary: enrichment ratio after two sorts for PhoP signalling (ratio (wild type AVST 3.29)); higher = more functional
- conditionsUsed: with PhoP (E. coli)
The full ranking holds about 140,000 sequences; the median of “enrichment ratio after two sorts for PhoP signalling” is about 0, and the highest 2% start at about 11. The sample holds the highest values, similar sequences and a random draw of the others, so the mix is not that of the screen.
experimentalEndpoint: enrichment ratio

Illustrative cases are given below, each with its answer.
variantNotation: LTFD
observedResult: ≤ 0.25
//
variantNotation: AFCE
observedResult: ≤ 0.25
//
variantNotation: NAWH
observedResult: ≤ 0.25
//
variantNotation: VKNM
observedResult: ≤ 0.25
//
variantNotation: SPTC
observedResult: ≤ 0.25
//
variantNotation: ADSI
observedResult: ≤ 0.25
//
variantNotation: QFWE
observedResult: ≤ 0.25
//
variantNotation: KMLL
observedResult: ≤ 0.25

Incoming: Item YMHI : provide enrichment ratio
Outgoing: ≤ 0.25

Incoming: Item NMLL : provide enrichment ratio
Outgoing: ≤ 0.25

Incoming: Item AKDH : provide enrichment ratio
Outgoing: ≤ 0.25

Incoming: Item WTPV : provide enrichment ratio
Outgoing: ≤ 0.25

Incoming: Item AGVR : provide enrichment ratio
Outgoing: ≤ 0.25

Incoming: Item AHSI : provide enrichment ratio
Outgoing: ≤ 0.25

// data source = a collection of fitness landscapes (doi:10.1126/science.1257360)
